Test System: BACE2 (Homo sapiens)
Construct: recombinant BACE2 protein in a final concentration of 0.4 μg/ml
Assay Remarks: BACE2 biochemical FRET based assay
Condition Summary: recombinant BACE2 0.4 μg/ml, 10 μM substrate, 450 min, pH 5.0; read-out: BIOCHEMICAL FRET BASED ASSAY pIC50 (converted)
Measure Name: IC50 (nM)
Provide only the numeric value, understood in nM.

Problem: What value of IC50 has been reported for the following molecule? COc1ccncc1-c1cnc(OC)c2c1C[C@H]1CSC(N)=N[C@@]1(c1ccc(F)cc1F)C2 [Compound 103]
Solution: 2570

Problem: Similarly, COc1ncc(Br)c2c1C[C@]1(c3cc(O)ccc3F)N=C(N)SC[C@@H]1C2 [Compound 42] ?
Solution: 29.5

Problem: Similarly, COC/C=C/c1cnc(OC)c2c1C[C@H]1CSC(N)=N[C@@]1(c1ccc(F)cc1F)C2 [Compound 47] ?
Solution: 6.61

Problem: Similarly, COc1ncc(-c2cnccc2C)c2c1CC1(c3cc(O)ccc3F)N=C(N)SCC1C2 (racemic) [Compound 26] ?
Solution: 479

Problem: Similarly, COc1ncc(-c2cccnc2)c2c1C[C@]1(c3ccc(F)cc3F)N=C(N)SC[C@@H]1C2 [Compound 87] ?
Solution: 7.08

Problem: Similarly, COCC(=O)Nc1cc(C23Cc4c(ccnc4OC)CC2CSC(N)=N3)c(F)cc1F (single isomer, unassigned) [Compound 199] ?
Solution: 7.08

Problem: Similarly, COc1nccc2c1C[C@@]1(c3ccc(F)cc3F)N=C(N)SC[C@H]1C2 [Compound 182] ?
Solution: 6170

Problem: Similarly, COc1nccc2c1CC1(c3cc(Br)c(F)cc3F)N=C(N)SCC1C2 (racemic) [Compound 6] ?
Solution: 219

Problem: Similarly, COc1ncc(-c2cccnc2)c2c1C[C@]1(c3ccc(F)cc3F)N=C(N)OC[C@@H]1C2 (racemic) [Compound 31] ?
Solution: 178

Problem: Similarly, COc1ncc(-c2ccncc2C)c2c1CC1(c3ccc(F)cc3F)N=C(N)OCC1C2 (racemic) [Compound 32] ?
Solution: 1120

Problem: Similarly, COCC(C)NCc1ccc(F)c(C23Cc4c(ccnc4OC)CC2CSC(N)=N3)c1 (racemic) [Compound 13] ?
Solution: 39.8

Problem: Similarly, COc1ncc(C2CC2)c2c1C[C@]1(c3ccccc3F)N=C(N)SC[C@@H]1C2 (racemic) [Compound 20] ?
Solution: 14.1

Problem: Similarly, COc1nccc2c1CC1(c3cc(-c4cncnc4)ccc3F)N=C(N)SCC1C2 (racemic) [Compound 10] ?
Solution: 457

---

Test System: β-secretase I (BACE1) (Homo sapiens, UniProt P56817)
Sequence (P56817 46-501): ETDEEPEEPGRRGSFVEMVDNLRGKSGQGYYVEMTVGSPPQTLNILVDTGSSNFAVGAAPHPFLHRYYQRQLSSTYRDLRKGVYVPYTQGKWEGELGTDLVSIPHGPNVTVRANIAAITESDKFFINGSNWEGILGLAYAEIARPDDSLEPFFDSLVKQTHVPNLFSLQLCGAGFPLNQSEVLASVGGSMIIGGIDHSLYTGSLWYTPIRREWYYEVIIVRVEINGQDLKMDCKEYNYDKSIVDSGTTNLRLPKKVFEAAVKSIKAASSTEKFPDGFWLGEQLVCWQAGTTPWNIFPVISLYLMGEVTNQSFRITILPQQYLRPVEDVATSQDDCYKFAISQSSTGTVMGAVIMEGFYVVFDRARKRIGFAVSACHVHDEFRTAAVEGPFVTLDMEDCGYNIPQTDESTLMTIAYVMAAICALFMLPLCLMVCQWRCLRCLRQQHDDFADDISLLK
Assay Remarks: Biochemical assay, automated (CyclOps), BACE1
Condition Summary: automated CyclOps bioassay
Measure Name: AUTOMATED ASSAY BACE1 pIC50
Number only, no unit.

Problem: What value of AUTOMATED ASSAY BACE1 pIC50 has been reported for the following molecule? COc1ncc(-c2c(C)noc2C)c2c1C[C@]1(c3cc(OCc4c(C)noc4C)ccc3F)N=C(N)SC[C@@H]1C2
Solution: 6.73

Problem: Similarly, COc1ncc(-c2cc(C(F)(F)F)ccc2F)c2c1C[C@]1(c3ccc(F)cc3F)N=C(N)SC[C@@H]1C2 ?
Solution: 7.34

Problem: Similarly, COc1ncc(-c2cccc3cnccc23)c2c1C[C@]1(c3ccc(F)cc3F)N=C(N)SC[C@@H]1C2 ?
Solution: 7.82

Problem: Similarly, COc1ccc(F)cc1-c1cnc(OC)c2c1C[C@H]1CSC(N)=N[C@@]1(c1cc(OCC3CCOCC3)ccc1F)C2 ?
Solution: 6.43

Problem: Similarly, COc1ncc(-c2cccc(C)c2C)c2c1C[C@]1(c3ccc(F)cc3F)N=C(N)SC[C@@H]1C2 ?
Solution: 8.11

---

Test System: BACE2 (Homo sapiens)
Construct: recombinant BACE2 protein in a final concentration of 0.4 μg/ml
Assay Remarks: BACE2 biochemical FRET based assay
Condition Summary: recombinant BACE2 0.4 μg/ml, 10 μM substrate, 450 min, pH 5.0; read-out: BIOCHEMICAL FRET BASED ASSAY pIC50 (converted)
Measure Name: IC50 (nM)
Provide only the numeric value, understood in nM.

Problem: What value of IC50 has been reported for the following compound? COc1nccc2c1CC1(c3ccc(Cl)cc3F)N=C(N)SCC1C2 (racemic)
Solution: 155

Problem: Similarly, COc1nccc2c1CC1(c3cc(C#N)ccc3F)N=C(N)SCC1C2 (racemic) ?
Solution: 219

---

Assignment: determine reported BIOCHEMICAL FRET BASED ASSAY pIC50 for the given molecules.
Test System: BACE1 (Homo sapiens, UniProt P56817)
Construct: recombinant BACE1 protein in a final concentration of 0.04 μg/ml
Sequence (P56817 46-501): as above
Assay Remarks: BACE1 biochemical FRET based assay
Condition Summary: recombinant BACE1 0.04 μg/ml, 20 μM substrate, 450 min, pH 5.0

Problem: What value of BIOCHEMICAL FRET BASED ASSAY pIC50 has been reported for the following molecule? COc1ncc(-c2cnccc2C)c2c1C[C@@]1(c3cc(-c4cncnc4)ccc3F)N=C(N)SC[C@H]1C2 [Compound 193]
Solution: 5.26

Problem: Similarly, COc1ncc(-c2ccccc2)c2c1C[C@]1(c3ccc(F)cc3F)N=C(N)SC[C@@H]1C2 [Compound 49] ?
Solution: 8.81

Problem: Similarly, COc1ncc(C2=CCOCC2)c2c1C[C@]1(c3ccc(F)cc3F)N=C(N)SC[C@@H]1C2 [Compound 46] ?
Solution: 8.64

Problem: Similarly, COc1ncc(-c2cc(Cl)ccc2C)c2c1C[C@]1(c3ccc(F)cc3F)N=C(N)SC[C@@H]1C2 [Compound 60] ?
Solution: 8.26

Problem: Similarly, COc1ncc(-c2cnccc2C)c2c1C[C@]1(c3cc(-c4cncnc4)ccc3F)N=C(N)SC[C@@H]1C2 (mixture of isomers) [Compound 39] ?
Solution: 8.3

Problem: Similarly, COc1ncc(Oc2ccccn2)c2c1C[C@]1(c3ccc(F)cc3F)N=C(N)SC[C@@H]1C2 [Compound 135] ?
Solution: 7.6

Problem: Similarly, CCOc1nccc2c1CC1(c3ccc(F)cc3F)N=C(N)SCC1C2 (single isomer, unassigned) [Compound 195] ?
Solution: 6.9

Problem: Similarly, COc1ncc(-c2ccccc2C)c2c1C[C@]1(c3ccc(F)cc3F)N=C(N)SC[C@@H]1C2 [Compound 55] ?
Solution: 8.45

Problem: Similarly, COc1ncc(-c2cc(C#N)ccc2Cl)c2c1C[C@]1(c3ccc(F)cc3F)N=C(N)SC[C@@H]1C2 [Compound 53] ?
Solution: 7.97

Problem: Similarly, COc1ncc(Br)c2c1C[C@]1(c3cc(Oc4ccccn4)ccc3F)N=C(N)SC[C@@H]1C2 [Compound 137] ?
Solution: 7.97

Problem: Similarly, COc1ncc(-c2ccccc2Cl)c2c1C[C@]1(c3ccc(F)cc3F)N=C(N)SC[C@@H]1C2 [Compound 52] ?
Solution: 8.38

---

Assignment: determine reported CELLULAR αLISA ASSAY IN SKNBE2 CELLS ABETA 42 PIC50 for the given compounds.
System: Abeta 1-42 produced and secreted by SKNBE2 cells expressing hAPP695
Assay Remarks: Cellular αLisa assay in SKNBE2 cells, Abeta 1-42
Type: cell-based, human
Condition Summary: SKNBE2 cells expressing hAPP695, 18 hours incubation
Number only, no unit.

Problem: Hello, I am looking for reported CELLULAR αLISA ASSAY IN SKNBE2 CELLS ABETA 42 PIC50 with Abeta 1-42 produced and secreted by SKNBE2 cells expressing hAPP695 for COCC(=O)Nc1cc(C23Cc4c(ccnc4OC)CC2CSC(N)=N3)c(F)cc1F (single isomer, unassigned) [Compound 198] . Could you help?
Solution: 6.58

Problem: Similarly, COc1ncc(-c2ccccc2)c2c1C[C@]1(c3ccc(F)cc3F)N=C(N)SC[C@@H]1C2 ?
Solution: 8.56

Problem: Similarly, COc1ncc(-c2cc(Cl)ccc2C)c2c1C[C@]1(c3ccc(F)cc3F)N=C(N)SC[C@@H]1C2 ?
Solution: 7.25

Problem: Similarly, COCC(=O)Nc1cc(C23Cc4c(ccnc4OC)CC2CSC(N)=N3)c(F)cc1F (single isomer, unassigned) [Compound 199] ?
Solution: 8.36

---

Assignment: determine reported CELLULAR αLISA ASSAY IN SKNBE2 CELLS ABETA 42 PIC50 for the given compounds.
Test system: Abeta 1-42 produced and secreted by SKNBE2 cells expressing hAPP695
Assay Remarks: Cellular αLisa assay in SKNBE2 cells, Abeta 1-42
Assay type: cell-based, human
Condition Summary: SKNBE2 cells expressing hAPP695, 18 hours incubation

Problem: What value of CELLULAR αLISA ASSAY IN SKNBE2 CELLS ABETA 42 PIC50 has been reported for the following compound? COc1ncc(-c2ccccc2Cl)c2c1C[C@]1(c3ccc(F)cc3F)N=C(N)SC[C@@H]1C2 [Compound 52]
Solution: 7.96

Problem: Similarly, COc1ncc(Oc2ccccn2)c2c1C[C@]1(c3ccc(F)cc3F)N=C(N)SC[C@@H]1C2 [Compound 135] ?
Solution: 7.6

Problem: Similarly, COc1ncc(-c2cc(C#N)ccc2Cl)c2c1C[C@]1(c3ccc(F)cc3F)N=C(N)SC[C@@H]1C2 [Compound 53] ?
Solution: 7.84

Problem: Similarly, COc1ncc(-c2ccccc2C)c2c1C[C@]1(c3ccc(F)cc3F)N=C(N)SC[C@@H]1C2 [Compound 55] ?
Solution: 7.99

Problem: Similarly, COc1ncc(-c2cnccc2C)c2c1CC1(c3ccc(Cl)cc3F)N=C(N)SCC1C2 (single isomer, unassigned) [Compound 200] ?
Solution: 8.09

Problem: Similarly, CCOc1nccc2c1CC1(c3ccc(F)cc3F)N=C(N)SCC1C2 (single isomer, unassigned) [Compound 195] ?
Solution: 7.09

Problem: Similarly, COc1ncc(-c2cnccc2C)c2c1C[C@]1(c3cc(-c4cncnc4)ccc3F)N=C(N)SC[C@@H]1C2 (mixture of isomers) [Compound 39] ?
Solution: 8.78
